Entries and their Ki
biological target: Sphingosine kinase 2 (Mus musculus); test: Inhibition of mouse recombinant SPHK2 expressed in baculovirus-infected Sf9 cells in presence of sphingosine
Report the figure in µM without appending any unit label.

Known results for compounds:
smiles_code | tested_system | Ki [µM]
CCCCCCCCCCCCc1ccc(NC(=O)C2(C(=N)N)CC2)cc1 | Sphingosine kinase 2 (Mus musculus) | 6
CCCCCCCCc1ccc(C(=O)N[C@H](C)C(=N)N)cc1 | Sphingosine kinase 2 (Mus musculus) | 25
CCCCCCCCc1ccc(C(=O)NC2(C(=N)N)CC2)cc1 | Sphingosine kinase 2 (Mus musculus) | 23

Inquiry: May I ask what Ki has been recorded for "CCCCCCCCCCCCCCc1ccc(C(=O)NC2(C(=N)N)CC2)cc1" ?
Reply text: 32

Inquiry: Subsequent entry: "CCCCCCCCc1ccc(C(=O)N[C@@H](C)C(=N)N)cc1.Cl"
Reply text: 20

Inquiry: Subsequent entry: "CCCCCCCCCCCCCCCCc1ccc(C(=O)NC2(C(=N)N)CC2)cc1"
Reply text: 10
